TARGET ENTITY: T1, huNav1.7α+β1 (human, UniProt Q15858 1-1988; Q07699 19-218)
T1 construct: also called huNav1.7-beta1; HEKa/β1
TEST PROTOCOL: binding FACS, HEKa/β1 cells
I'd appreciate it if you marked entries true (1) when EC50 is lower than 5 nM and false (0) when it is not.

BINDER	GROUP
F010301560 (VHH, vs 387G05: D53G, D54G, D58G) VHH: EVQLVESGGGLVQAGGSLRLSCDASGRILRIGYMRWHRQGAGKQREFVARITGGSATGYADSVKGRFTISRDNAKNTVYLQMNNLNPEDTAVYYCEALVTASVRGGSIHSGTYWGRGTLVTVSS	true (1)

Here's an entry: F010301563 (VHH, also called F0103387G05(D23A, D58G); F0103301563) VHH: EVQLVESGGGLVQAGGSLRLSCAASGRILRIGYMRWHRQGAGKQREFVARITDDSATGYADSVKGRFTISRDNAKNTVYLQMNNLNPEDTAVYYCEALVTASVRGGSIHSGTYWGRGTLVTVSS . Is its EC50 below 5 nM?
true (1)

Here's an entry: F010301372 (VHH, vs 387G05: S100dG) VHH: EVQLVESGGGLVQAGGSLRLSCDASGRILRIGYMRWHRQGAGKQREFVARITDDSATDYADSVKGRFTISRDNAKNTVYLQMNNLNPEDTAVYYCEALVTASVRGGGIHSGTYWGRGTLVTVSS . Is its EC50 below 5 nM?
true (1)

Here's an entry: F010301458 (VHH, vs F0103265A11: A31R, Y56W, V60N, S93A, L103Q) VHH: EVQLVESGGGLVQPGGSLRLSCAASGMLFNRNTQGWYRQAPGKQRELVAFIFSGGWTNYNDSVKGRFTISRDNAKRTMYLQMNSLKPEDSAIYYCALSRYQGQGTLVTVSS . Is its EC50 below 5 nM?
true (1)

Here's an entry: F010301055 (VHH, vs F0103265A11: S53W, T57V) VHH: EVQLVESGGGLVQPGGSLRLSCAASGMLFNANTQGWYRQAPGKQRELVAFIFWGGYVNYVDSVKGRFTISRDNAKRTMYLQMNSLKPEDSAIYYCSLSRYLGQGTLVTVSS . Is its EC50 below 5 nM?
true (1)

Here's an entry: F010301562 (VHH, vs 387G05: D23A, D54G) VHH: EVQLVESGGGLVQAGGSLRLSCAASGRILRIGYMRWHRQGAGKQREFVARITDGSATDYADSVKGRFTISRDNAKNTVYLQMNNLNPEDTAVYYCEALVTASVRGGSIHSGTYWGRGTLVTVSS . Is its EC50 below 5 nM?
true (1)

Here's an entry: F0103265A11 (parental)-FLAG-HIS6 (VHH, also called F01033265A11) VHH: EVQLVESGGGLVQPGGSLRLSCAASGMLFNANTQGWYRQAPGKQRELVAFIFSGGYTNYVDSVKGRFTISRDNAKRTMYLQMNSLKPEDSAIYYCSLSRYLGQGTLVTVSS . Is its EC50 below 5 nM?
false (0)
